Where do these numbers come from? They come from patent US10508120B2.

# experimental.target: Tyk2 kinase domain (DH1) (Homo sapiens (Human))
# Sequence (P29597 897-1176): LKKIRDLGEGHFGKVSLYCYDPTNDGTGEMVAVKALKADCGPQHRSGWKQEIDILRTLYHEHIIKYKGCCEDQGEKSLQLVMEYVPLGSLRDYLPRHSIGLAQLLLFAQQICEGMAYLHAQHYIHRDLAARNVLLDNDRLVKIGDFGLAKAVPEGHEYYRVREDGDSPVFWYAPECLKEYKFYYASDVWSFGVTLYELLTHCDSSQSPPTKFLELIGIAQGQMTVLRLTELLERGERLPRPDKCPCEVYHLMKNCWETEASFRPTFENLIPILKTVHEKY
# experiment: Tyk2 Radioactive Kinase Assay
# Type: biochemical
# condition: compound at 10 μM; ATP 10 μM; read-out: Tyk2 JH1% Inhibition @ 10 μM
reported.metric: inhibition at 10 µM

-- ask // query inhibition at 10 µM value for entry Cc1cc(Nc2cc(N)n3ncc(C(N)=O)c3n2)cc(N2CCCC2=O)n1 [I-55]
-- reply < 50%

---

# experimental.target: human TYK2 (JH2domain-pseudokinase) (Homo sapiens (Human))
# Sequence (P29597 556-888): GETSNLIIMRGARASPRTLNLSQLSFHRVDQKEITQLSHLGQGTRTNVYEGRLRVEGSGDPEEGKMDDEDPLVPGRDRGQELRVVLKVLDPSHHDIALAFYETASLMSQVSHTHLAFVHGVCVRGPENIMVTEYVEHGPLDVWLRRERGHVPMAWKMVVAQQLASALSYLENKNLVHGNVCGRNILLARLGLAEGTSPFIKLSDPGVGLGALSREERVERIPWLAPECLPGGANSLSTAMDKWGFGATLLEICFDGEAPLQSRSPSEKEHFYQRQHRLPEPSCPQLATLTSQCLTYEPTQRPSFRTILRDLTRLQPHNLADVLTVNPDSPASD
# experiment: TYK2 JH2 Domain Binding Assay (KINOMEscan)
# maps each entry to its Kd

* CNc1cc(Nc2cccn(-c3cnn(C[C@H]4CCOC4)c3)c2=O)nc2c(C(=O)NC3CC3)cnn12 [I-601] | < 0.2 nM
* CNc1cc(-c2cn(C(C)C)c3ncc(Cl)cc23)nc2c(C(=O)N[C@@H]3C[C@@H]3F)cnn12 (stereo in doubt) [I-254] | 0.2 to 1 nM
* CNc1cc(Nc2cccn(-c3cncc(C)c3)c2=O)nc2c(C(=O)NC3CC3)cnn12 [I-301] | 0.2 to 1 nM

-- ask # get_value(readout= Kd, system= human TYK2 (JH2domain-pseudokinase) (Homo sapiens (Human))) for CNc1cc(Nc2cccn([C@H]3CCC[C@@H](O)C3)c2=O)nc2c(C(=O)N[C@H]3CC[C@@H]3OC)cnn12 [I-1296]
-- reply < 0.2 nM
